Test: yeast display, Sf9 membrane polyspecificity reagent, FACS + sequencing; frameworks hold sequencing errors

sequenceData	polyreactivity (PSR sort gate)
QVQLVESGGGLVQAGGSLRLSCAASGIIFGYNAMGWYRQAPGKERELVAAINQDGSSTYYADSVKGRFTISRDNAKNTVYLQMNSLKPEDTAVYYCNARGVPRQDARMGYWGQGTQVTVSS	low polyreactivity
QVQLVESGGGLVQAGGSLRLSCAAYGSFFPYNAMGWYRQAPGKERELVAGITRRGGSTYYADSVKGRFTISRDNAKNTVYLQINSLKPVDTAVYYCGTEVTYPWHVDEGDYWGQGTQVTVSS	low polyreactivity
QVQLVESGGGLVQAGGSLRLSCAACGRTFQSNAMGWYRQAPGKERELVARITRRGGITYYADSVKGRFTISRDNAKNTVYLQMNSLKPEDTAVYYCNRYLYDSYRWAALQRTGYNSWGQGTQVTVSS	high polyreactivity
QVQLVESGGGLVQAGGSLRLSCAASGRIFRRYVMGWYRPAPGKERELVATINSNGGSTYYADSVKGRFTISRDNAKNTVYLQMNSLKPEDTAVYYCAAYYRWIGGRYTPYYYWGQATQVTVSS	high polyreactivity
QVQLVESGGGLVQAGGSLRLSCAASGLILGYYAMGWYRQAPGKERELVATIRRGASTYYADSVKGRFTISRDNAKNTVYLQMNSLKPEDTAVYYCAADTERSLAGGMYYWGEGTQVTVSS	low polyreactivity
QFQLVESGGGLVQAGGSLRLSCAASGSTFPHYTMGWYRQAPGKERELVAAIRRSAGSTYYADSVKGRFTISRDNAKNTVYLQMNSLKPEDTAVYYCNTRQRPPYLVKLNYWGQGTQVTVSS	high polyreactivity
QVQLVESGGGILQAGGSLRLSCAASGSTFSGYAMGWYRQATGKERELVAAISSSGGSTYYADSVKGRFTISRDNAKNTVYLKMNSQKPEDTAVYYCAKRRYGKHYTGLTSYYYWGHGTQVTVSS	high polyreactivity
QVQLVESGGGLVQAGGSLRLSCAASGSTFQSYAMGWYRQAPGKERELVAAISTSDTDRTYYADSVKGRFTISRDNAKNTVYLQMNSLKPEDTAVYYCNAEGTYRPEYDSWGQGTQVTVSS	low polyreactivity
QVQLVESGGGLVQAGGSLRLSCAASGFTFLYYDMGWYRQAPGKERELVAAITNDDSTYYADSVKGRFTISRDNAKNTVYLQMNSLKPEDTAVYYCAADSVYGSDEYWGQGTQVTVSS	high polyreactivity
QVHLVESGGGLVQAGGSLRLSCAASGSTFGYYTMGWYRQAPGKERELVAAISGSGDSTYYADSVKGRFTISRDNAKNTVYLQMNSLKPEDTAVYYCAKRYYKRYNYWGQGTQVTVSS	high polyreactivity
QVQLVESGGGLVQAGGSLRLSCAASGSTFAFYDMGWYRQAPGKERELVAAISQSDGDTYYADSVKGRFTISRDNAKNTVYLQMNSLKPEDTAVYYCAAETSHNPEYERGSDYWGQGTQVTVSS	low polyreactivity
QVQLVESGGGLVQAGGSLRLSCAASGFIFAPYAMGWYRQAPGKERELVAAISWSGGSTYYADSVKGRFTISRDNAKNTVYLQMNSLKPEDTAVYYCAAAGYITRYDRYDYWGQGTQVTVSS	high polyreactivity
QVHLVESGGGLVQAGGSLRLSCAASGRTFRSYAMGWYRQAPGKERELVAAISWSGGSTYYADSVKGRFTISRDNAKNTVYLQMNSLKPEDTAVYYCAASYFYFPYTSDEGYWGQGTQVTVSS	high polyreactivity
QVQLVESGGGLVQAGGSLRLSCAASGIIFPKYVMGWYRKAPGKERELVAAISWSGTSTYYADSVKGRFTISRDNAKNTVYLQMNSLKPEDTAVYYCAARWSSTTGRFDYWGQGTQVTVSS	high polyreactivity
QVQLVESGGGLVQAGGSLRLSCAASGYILRNAMGWYRQAPGKERELVAAIRFRGGSTSYADSVKGRFTISRYNAKNTVYLQMKSLKPEDTAVYYCNALWWVIRPYQRHDYWGQVTQVTVSS	low polyreactivity
QVQLVESGGGLVQAGGSLRLSCAASGSTFTGYAMGWYRQAPGKERELVAAITRGGSTYYADSVKGRFTISRDNAKNTVYLQMNSLKPEDTAVYYCAAKPSSREPTGPRYYYWGQGTQVTVSS	high polyreactivity
QVQLVESVGGLVQAGGSLRLSCAASGFTFVDNAMGWYRQAPGKERELVAAISWTGVGSTYYADSVKGRFTISRDNAKNTVYLQMNSLKPEETAVYYCAADGLSRGVPDEFDYWGQGTQVTVSS	low polyreactivity
QVQLEESGGGLVQAGGRLRLSCAASGSTCGTNVMGGARQAPGKERELVAAFSNGGSTNYADSVKGRFTISRDNAKITDYLQMNSLKPEDTAVYYCEFDYWGQGTQVTVSS	low polyreactivity
QVQLVESGGGLVQAGGSLRLSCAASGRTFRRYAMGWYRQAPGKERELVAAISRGANTNYADSVKGRFTISRDNAKNTVYLQMNSLKPEDTAVYYCIAKQAGYYFAFGYWGQGTQVTVSS	high polyreactivity
QVQLVESGGGLVQAGGSLRLSCAASGFTFHNYAMGWYRQAPGKEREFVAAITRNTASTYYADSVKGRFTISRDNAKTTVYLQMISLKPEATAVYYCAATDKKHRTAYDSWGQRTQVTVSS	low polyreactivity
QVQLVESGGGLVQAGGSLRLSCAASGRIIRGYVMGWYRQAPRKEREMVAITIGAGRTYYADSVKGRFTISRDNAKNTVYLQMNSLIPEDTAVYYCAADTYSTSGYYYWGQGTQVTVSS	low polyreactivity
